Molecular target: Myc/Max binding to DNA (Homo sapiens)
Test: Electrophoretic mobility shift assay (EMSA) of Myc/Max binding to DNA
Format: biochemical
Details: EMSA, 100 uM test compound; read-out: Bound DNA (%) (100uM)
Endpoint: remaining activity at 100 µM (%)

Worked cases, remaining activity at 100 µM given:
>  <Chemical Structure>
CCc1ccc(Oc2c(-c3ccc(OCc4ccc(Cl)c(Cl)c4)cc3O)nn(C)c2C(F)(F)F)cc1

>  <Target Desc>
Myc/Max binding to DNA (Homo sapiens)

>  <remaining activity at 100 µM [%]>
82

$$$$
>  <Chemical Structure>
Cn1nc(-c2ccc(OCc3ccc(Cl)cc3)cc2O)c(Oc2ccccc2Cl)c1C(F)(F)F

>  <Target Desc>
Myc/Max binding to DNA (Homo sapiens)

>  <remaining activity at 100 µM [%]>
13

$$$$

(A) COc1cccc(-c2c(-c3ccc(OCc4ccc(Cl)cc4)cc3O)n[nH]c2C)c1
(B) Cc1ccc(-c2c(-c3ccc(OCc4ccc(Cl)cc4)cc3O)n[nH]c2C(F)(F)F)cc1
Task for the reader: decide whether A or B has the larger remaining activity at 100 µM. Label of pick, please.
A
(A: 104%, B: 16%)

---

Biological target: Myc/Max binding to DNA (Homo sapiens, UniProt P01106)
Sequence (P01106 whole entry): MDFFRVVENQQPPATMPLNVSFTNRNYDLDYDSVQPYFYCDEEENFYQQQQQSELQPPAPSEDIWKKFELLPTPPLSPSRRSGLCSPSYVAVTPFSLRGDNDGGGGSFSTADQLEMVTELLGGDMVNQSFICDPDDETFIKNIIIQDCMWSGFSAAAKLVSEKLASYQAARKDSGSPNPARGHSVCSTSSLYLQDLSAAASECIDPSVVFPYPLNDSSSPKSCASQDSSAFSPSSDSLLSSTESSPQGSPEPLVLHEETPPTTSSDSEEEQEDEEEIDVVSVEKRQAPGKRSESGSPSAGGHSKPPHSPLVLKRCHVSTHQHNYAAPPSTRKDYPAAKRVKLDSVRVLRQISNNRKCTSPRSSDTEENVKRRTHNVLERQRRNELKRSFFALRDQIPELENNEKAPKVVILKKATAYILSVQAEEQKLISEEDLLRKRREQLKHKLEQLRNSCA
Experiment: Electrophoretic mobility shift assay (EMSA) of Myc/Max binding to DNA
Assay type: biochemical
Conditions: EMSA, 100 uM test compound; read-out: Bound DNA (%) (100uM)
Endpoint: remaining activity at 100 µM (%)

>  <Compound>
COc1ccc(-c2cn(C)nc2-c2ccc(OCc3ccc(Cl)cc3)cc2O)cc1

>  <Output Unit>
%

>  <remaining activity at 100 µM>
106

$$$$
>  <Compound>
Cn1nc(C(F)(F)F)cc1-c1cnc(OCc2ccc(Cl)cc2)cn1

>  <Output Unit>
%

>  <remaining activity at 100 µM>
89

$$$$

(a) Cn1nc(-c2ccc(OCc3ccc(Cl)cc3)cc2O)c(Oc2cccc(F)c2)c1C(F)(F)F
(b) Oc1ccc(OCc2ccc(Cl)cc2)cc1-c1[nH]nc(C(F)(F)F)c1-c1ccccc1Cl
When their remaining activity at 100 µM values are compared, which is larger, a or b ? Please indicate the selected item by its label.
a
(a: 65%, b: 3%)

(A) Cc1cc(C)cc(-c2c[nH]nc2-c2ccc(OCc3ccc(Cl)cc3)cc2O)c1
(B) Oc1ccccc1C1=NNC(c2ccccc2)C1 (centres unmarked)
// pick larger remaining activity at 100 µM from pair: A vs B Reply briefly: the label of your chosen item.
B

(a) C/C(=N\N)c1cccc(-c2c(-c3ccc(OCc4ccc(Cl)cc4)cc3O)n[nH]c2C(F)(F)F)c1
(b) CCCc1c(C(F)(F)F)n[nH]c1-c1ccc(OCc2ccc(Cl)cc2)cc1O
Lower value of remaining activity at 100 µM belongs to which: a or b ? Identify your selection by its label.
a
(a: 44%, b: 75%)

(1) COc1cccc(-c2cn(C)nc2-c2ccc(OCc3ccc(Cl)cc3)cc2O)c1
(2) Oc1cc(OCc2ccc(Cl)cc2)ccc1-c1n[nH]cc1-c1ccccc1
# return whichever of 1 and 2 has the smaller remaining activity at 100 µM Answer = label.
2
(2: 70%, 1: 106%)

(A) Cn1cc(-c2cc(C(F)(F)F)cc(C(F)(F)F)c2)c(-c2ccc(OCc3ccc(Cl)cc3)cc2O)n1
(B) CCc1ccc(Oc2c(-c3ccc(OCc4ccc(OC)cc4)cc3O)n[nH]c2C(F)(F)F)cc1
(C) CCc1ccc(Oc2c(-c3ccc(OCc4cccc(Cl)c4)cc3O)n[nH]c2C(F)(F)F)cc1
Order these by remaining activity at 100 µM, descending, and give the full ranking. Answer by naming the labels in the order asked.
A, B, C
(A: 96%, B: 57%, C: 12%)

(1) Cn1cc(-c2ccoc2)c(-c2ccc(OCc3ccc(Cl)cc3)cc2O)n1
(2) Oc1cc(OCc2ccc(Cl)cc2)ccc1-c1n[nH]cc1-c1cccc(Cl)c1
Endpoint returns whichever of 1 and 2 has the numerically higher remaining activity at 100 µM. Write the label of whichever entry you select.
1
(1: 80%, 2: 18%)

(P) Cn1cc(C(F)(F)F)c(-c2ccc(OCc3ccc(Cl)cc3)cn2)n1
(Q) Oc1cc(OCc2ccc(Cl)cc2)ccc1-c1n[nH]cc1-c1cc(C(F)(F)F)cc(C(F)(F)F)c1
(R) CCc1ccc(Oc2c(-c3ccc(OCc4ccc(Cl)cc4)cc3OC)nn(C)c2C(F)(F)F)cc1
(S) Cn1nc(-c2ccc(OCc3ccc(Cl)cc3)cc2O)c(-c2ccc(F)cc2)c1C(F)(F)F
rank_up(items): orders items by reported remaining activity at 100 µM in ascending numerical order. Order the labels as requested and give them as your answer.
S, Q, R, P

(I) CCc1nn(C)c(-c2ccc(OCc3ccc(Cl)cc3)cc2O)c1-c1cccc(OC)c1
(II) Cn1nc(C(F)(F)F)c(-c2ccc(C(N)=O)cc2)c1-c1ccc(OCc2ccc(Cl)cc2)cc1O
Endpoint returns whichever of I and II has the numerically higher remaining activity at 100 µM. Please identify the chosen entry by its label.
I
(I: 101%, II: 69%)

---

Target: Myc/Max binding to DNA (Homo sapiens)
Experiment: Electrophoretic mobility shift assay (EMSA) of Myc/Max binding to DNA
Type: biochemical
Details: EMSA, 100 uM test compound; read-out: Bound DNA (%) (100uM)
Endpoint: remaining activity at 100 µM (%)

(1) Oc1cc(OCc2ccc(Cl)cc2)ccc1-c1cc(C(F)(F)F)nc(-c2cc(C(F)(F)F)cc(C(F)(F)F)c2)n1
(2) Cn1nc(-c2ccc(Nc3ccccn3)cc2O)cc1C(F)(F)F
(3) N#Cc1cccc(-c2c(-c3ccc(OCc4ccc(Cl)cc4)cc3O)n[nH]c2C(N)=O)c1
(4) Oc1cc(OCc2ccc(Cl)cc2)ccc1-c1cc(C(F)(F)F)[nH]n1
(5) Oc1ccc(OCc2ccc(Cl)cc2)cc1-c1[nH]nc(C(F)(F)F)c1-c1ccc(F)cc1
Which order do these items take when sorted by rising remaining activity at 100 µM? List them. Provide your answer as the labels ordered per the instruction.
4, 5, 3, 1, 2
(4: 1%, 5: 13%, 3: 53%, 1: 79%, 2: 118%)

---

Target: Myc/Max binding to DNA (Homo sapiens, UniProt P01106)
Assay: Electrophoretic mobility shift assay (EMSA) of Myc/Max binding to DNA
Type: biochemical
Conditions: EMSA, 100 uM test compound; read-out: Bound DNA (%) (100uM)
Method: We also tested our best hit compound Min9 (NUCC-0176234) and newly synthesized analogs for effects of these compounds on Myc/Max binding to DNA in electrophoretic mobility shift assays (EMSAs). (See FIG. 5a and FIG. 5b). We expected the active compounds to impair Myc/Max binding to DNA. Several strucutural analogs of Min9 were tested over multiple doses for inhibiting Myc-DNA binding and we observed a dose-dependent inhibition. (See FIG. 5c). […]
Endpoint: remaining activity at 100 µM (%)

>  <Compound>
Cn1nc(C(F)(F)F)c(-c2cccc(C#N)c2)c1-c1ccc(OCc2ccc(Cl)cc2)cc1O [compound 0198399]

>  <Endpoint>
remaining activity at 100 µM

>  <Reported Result>
2

$$$$

(a) NC(=O)c1cc(-c2ccc(Nc3ccc(Cl)cc3)cc2O)n[nH]1 [compound 0200677]
(b) NC(=O)c1ccc(-c2c(-c3ccc(OCc4ccc(Cl)cc4)cc3O)n[nH]c2C(F)(F)F)cc1 [compound 0198394]
(c) Cn1cc(Oc2ccccc2Cl)c(-c2ccc(OCc3ccc(Cl)cc3)cc2O)n1 [compound 0196305]
Kindly order the items shown according to remaining activity at 100 µM, from the highest value down. Give me the labels in the order the question wants.
a, b, c
(a: 102%, b: 30%, c: 3%)

---

Molecular target: Myc/Max binding to DNA (Homo sapiens, UniProt P01106)
Test: Electrophoretic mobility shift assay (EMSA) of Myc/Max binding to DNA
Type: biochemical
Conditions: EMSA, 100 uM test compound; read-out: Bound DNA (%) (100uM)
Endpoint: remaining activity at 100 µM (%)

>  <Molecule>
CCc1c(-c2ccccc2)c(-c2ccc(OCc3ccc(Cl)cc3)cc2O)nn1C [compound 0198303]

>  <Endpoint>
remaining activity at 100 µM

>  <Reported Result>
105

$$$$
>  <Molecule>
Oc1cc(Nc2ccccn2)ccc1-c1cc(C(F)(F)F)[nH]n1 [compound 0200565]

>  <Endpoint>
remaining activity at 100 µM

>  <Reported Result>
112

$$$$
>  <Molecule>
Cc1ccccc1-c1c[nH]nc1-c1ccc(OCc2ccc(Cl)cc2)cc1O [compound 0198355]

>  <Endpoint>
remaining activity at 100 µM

>  <Reported Result>
75

$$$$
>  <Molecule>
Cn1nc(-c2ccc(OCc3ccc(Cl)cc3)cc2O)c(-c2ccc(C(F)(F)F)cc2)c1C(F)(F)F [compound 0200727]

>  <Endpoint>
remaining activity at 100 µM

>  <Reported Result>
99

$$$$

(a) CCc1ccc(Oc2c(-c3ccc(OCc4ccc(Cl)cc4)cc3O)nn(C)c2CC)cc1 [compound 0196294]
(b) Cn1nc(-c2ccc(Nc3ccc(Cl)cc3)cc2O)cc1C(F)(F)F [compound 0200492]
Of the two listed items, which has the higher remaining activity at 100 µM? First: a Second: b Which one? Tell me its label.
a
(a: 106%, b: 24%)

From: patent US20170253581A1
